- method.notes: 14C assay with IPTG-induced recombinant E. coli cells (14CO2 capture from [14C]-carboxyl-labeled dicamba)
- condition.set: IPTG-induced recombinant E. coli cells; [14C]-carboxyl-labeled dicamba; 14CO2 capture
metric.name: Dicamba Decarboxylase Activity

INSERT INTO measurements (molecule, result) VALUES
  ('51 (protein, listed as Mycobacterium gilvum) MARVIAIEEHYAHPGLQPAEALANLRKHPQLARIQDKLEDLGAGRLADMDAAGIDMQVLSHTVPGAEALPAAQAVDVVRQTNDDLAEVIAAHPDRFAGFAALPMRDPQAAATELQRAVGTLGFCGAMINGLIEGRFLDHPDFTPLLSTAADLGVPLYLHPSFPPPQVAQIYFGGLPPVLADLLATAGWGWHAETALHVLRLISTGVFDRLPELRVIVGHMGEMIPFALARIDTVLSPMTELRQPVAQYFQTNVWFTTSGYTTFPPLQCALSTVGIDRLIFSVDYPYTDNASARALLDTAPISPVDREKLAHATVEALLRV', 'High'),
  ('45 (protein, Mycobacterium sp) MANDDLAEVIAAHPDRFAGFAALPMRDPQAAAVELQRAVGTHGFCGAMINGLIEGRFLDDPAFAPLLSTAADLGVPLYLHPSFPPPQVAEIYFGGLAPVLGDLLATAGWGWHAETALHVLRLVATGVFDRLPELWVIVGHMGEMIPFALARIDTVLSPVAQLRQPVAQYFQTNVWFTTSGYTTFPPLQCALSTVGIDRLIFSVDYPYTDNTSARALLDTAPISPVDREKLAHGTVEALLRV', 'No'),
  ('57 (protein, Collimonas fungivorans) MAKLICVEEHVLDPAVGAATQSLVRAEAPYLPDWGSRVLDGRHVADRSRPHVIAPSESARKALEMGEPRLADMDAASIDMQVLSYGGFPQLLPAAQAIDLNRAANDKLALAAQAHPARFAGFATLPWQAPEAAARELERAVKQLGLKGALINGRPGDTFLDDARYAPILAAFDELKVPLYVHPGLPLPAVQAPYYGGFERELSARLAMFAWGWHNEAGIQVVRMLLAGVFDRHPRLQLISGHWGEMVPFFLQRLEDSIPQEASGLQRPIVQTYREHVYISPSGMFTLPHFQFIHALMGAQRILYSIDYPYQSLDGARAFIERLPISDTDKALIAHRNAERLLHL', 'High'),
  ('39 (protein, listed as Agrobacterium fabrum) MAQGKVALEEHFAIPETLQDSAGFVPGDCWTELQHRLLDIQDTRLKLMDAHGIETMILSLNAPAVQAIPDKTKAIEIARRANDALAEECAKRPDRFLAFAALPLQDPDAATQELRRCVNDLGFVGALVNGFSQEGDGQTPLYYDLPQYRPFWGEVEKLDVPFYLHPRNPLPQDSRIYDGHPWLLGPTWAFAQETAVHALRLMASGLFDEHPRLDIILGHMGEGLPYMMWRIDHRNAWVKLPPRYPAKRRFVDYFNENFHITTSGNFRTQTLIDAILEIGADRILFSTDWPFENIDHASDWFHATSIAEADRVKIGRTNARRLFKLDGR', 'No');
